From: ChEMBL document CHEMBL1136393

# ASSAY_SYSTEM: Adrenergic receptor alpha-1 (Rattus norvegicus, UniProt P15823+P23944+P43140)
# Sequence (P15823 whole entry): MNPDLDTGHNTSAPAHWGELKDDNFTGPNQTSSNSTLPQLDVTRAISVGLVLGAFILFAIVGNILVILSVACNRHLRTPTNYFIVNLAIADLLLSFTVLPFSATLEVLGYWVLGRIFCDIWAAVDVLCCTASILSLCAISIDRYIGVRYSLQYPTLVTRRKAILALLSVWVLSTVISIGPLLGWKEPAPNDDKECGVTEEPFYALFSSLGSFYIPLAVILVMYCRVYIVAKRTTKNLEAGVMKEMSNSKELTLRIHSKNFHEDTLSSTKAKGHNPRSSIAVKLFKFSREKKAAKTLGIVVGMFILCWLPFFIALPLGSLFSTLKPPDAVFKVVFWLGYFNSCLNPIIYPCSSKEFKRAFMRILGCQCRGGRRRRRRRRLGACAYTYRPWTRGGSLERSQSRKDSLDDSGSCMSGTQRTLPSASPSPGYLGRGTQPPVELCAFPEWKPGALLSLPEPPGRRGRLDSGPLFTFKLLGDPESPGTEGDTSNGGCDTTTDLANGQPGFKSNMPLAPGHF
# Sequence (P23944 whole entry): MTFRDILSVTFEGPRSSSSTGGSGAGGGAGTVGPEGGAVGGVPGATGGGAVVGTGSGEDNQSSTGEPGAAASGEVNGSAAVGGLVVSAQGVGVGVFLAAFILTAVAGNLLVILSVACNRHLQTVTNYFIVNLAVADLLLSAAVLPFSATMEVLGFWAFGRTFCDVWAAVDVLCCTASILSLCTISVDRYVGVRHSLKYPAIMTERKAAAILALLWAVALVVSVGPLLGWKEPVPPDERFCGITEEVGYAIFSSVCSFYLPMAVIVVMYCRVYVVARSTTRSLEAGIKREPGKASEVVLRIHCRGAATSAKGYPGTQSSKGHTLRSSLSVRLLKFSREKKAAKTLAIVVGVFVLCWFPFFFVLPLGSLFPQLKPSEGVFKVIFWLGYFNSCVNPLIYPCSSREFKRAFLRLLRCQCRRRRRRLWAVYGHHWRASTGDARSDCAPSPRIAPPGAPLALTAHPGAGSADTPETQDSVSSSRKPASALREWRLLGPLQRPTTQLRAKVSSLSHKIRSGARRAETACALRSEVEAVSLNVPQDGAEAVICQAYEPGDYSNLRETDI
# Sequence (P43140 whole entry): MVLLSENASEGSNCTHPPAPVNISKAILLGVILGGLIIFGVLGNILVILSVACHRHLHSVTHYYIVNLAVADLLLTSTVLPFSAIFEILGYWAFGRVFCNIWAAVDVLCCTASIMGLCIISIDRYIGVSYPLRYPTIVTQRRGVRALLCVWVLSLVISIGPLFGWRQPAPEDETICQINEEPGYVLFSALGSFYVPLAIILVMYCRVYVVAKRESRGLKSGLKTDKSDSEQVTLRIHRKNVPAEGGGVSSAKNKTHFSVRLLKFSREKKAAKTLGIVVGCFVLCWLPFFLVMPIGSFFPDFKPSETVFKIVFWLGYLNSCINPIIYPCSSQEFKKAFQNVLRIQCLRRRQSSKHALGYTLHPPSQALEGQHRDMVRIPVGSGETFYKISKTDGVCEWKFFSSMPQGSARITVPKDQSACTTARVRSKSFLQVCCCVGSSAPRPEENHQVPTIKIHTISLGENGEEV
# PROTOCOL_NOTES: Binding affinity towards alpha receptor in rat brain using [3H]prazosin as radioligand
# Type: tissue-based
RECORDED_ENDPOINT: Ki (µM)

// known answers, use as guide
* Nc1cc(N2CCc3ccccc3C2)c2ccccc2n1 | 0.12
* Cc1cc(N2CCc3ccccc3C2)cc(N)n1 | 1.5
* Cc1cc(N2CCc3ccccc3C2)ccn1 | 5.7
* OCCNc1cc(N2CCc3ccccc3C2)c2ccccc2n1 | 1.7
* CCOC(=O)C(=O)Nc1cc(N2CCc3ccccc3C2)cc(C)n1 | 12

I = Cc1cc(N2CCc3ccccc3C2)cc(NCCO)n1
II = Cc1cc(N2CCc3ccccc3C2)cc(NC(=O)CO)n1
III = Nc1cc(N2CCc3ccccc3C2)ccn1
Q) // smallest Ki at index 0, largest at the end When ranking, write the labels in the order the request describes.
A) III, I, II
